From: patent US3962249A

Test: acute toxicity, LD50 in mice by subcutaneous injection (Up and Down method)
Assay type: in vivo
Conditions: mouse, sc, drugs dissolved in physiological saline
Please respond with reported LD50 for every item in the list.
One number for each entry, in mg/kg.

As a guide, the following entries are already answered.
{"columns": ["Compound", "LD50 [mg/kg]"],
 "data": [
  ["Cc1cccc(CCCN2CCN(C(=O)c3ccco3)CC2)c1.Cl", 350],
  ["Cc1occc1C(=O)N1CCN(CCCc2ccccc2)CC1.Cl", 170],
  ["Cl.O=C(c1ccco1)N1CCN(CCCc2ccccc2)CC1", 400]
]}

Hi, could you look up LD50 for each item in my list?
1. Cc1ccccc1CCCN1CCN(C(=O)c2ccco2)CC1.Cl
2. Cc1cc(C(=O)N2CCN(CCCc3ccccc3)CC2)co1.Cl
3. CC1CN(C(=O)c2ccco2)CCN1CCCc1ccccc1 (stereo not drawn)

1. 400
2. 200
3. 300
